Target: MMP-1 (Homo sapiens, UniProt P03956)
Sequence (P03956 100-469): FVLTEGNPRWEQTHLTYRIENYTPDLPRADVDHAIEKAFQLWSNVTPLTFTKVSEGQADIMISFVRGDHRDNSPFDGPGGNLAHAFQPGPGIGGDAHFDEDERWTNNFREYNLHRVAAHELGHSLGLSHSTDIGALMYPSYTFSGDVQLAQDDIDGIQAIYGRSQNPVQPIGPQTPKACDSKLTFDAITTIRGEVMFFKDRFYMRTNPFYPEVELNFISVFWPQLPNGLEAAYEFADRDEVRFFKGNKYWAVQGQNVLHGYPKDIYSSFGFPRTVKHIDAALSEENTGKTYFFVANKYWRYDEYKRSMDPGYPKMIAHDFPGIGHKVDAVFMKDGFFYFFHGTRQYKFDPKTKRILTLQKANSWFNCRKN
quantity: IC50 (µM)
Report as a plain number; the unit µM is understood.

Can you look up the measured IC50 of CC#CCOc1ccc(S(=O)(=O)N(C)c2c(C(=O)NO)cnc3onc(C)c23)cc1 [Example 9] for me?
1.91
